Listed here are compounds together with their documented pIC50.
measurement-target: hERG (Homo sapiens, UniProt Q12809)
Sequence (Q12809 whole entry): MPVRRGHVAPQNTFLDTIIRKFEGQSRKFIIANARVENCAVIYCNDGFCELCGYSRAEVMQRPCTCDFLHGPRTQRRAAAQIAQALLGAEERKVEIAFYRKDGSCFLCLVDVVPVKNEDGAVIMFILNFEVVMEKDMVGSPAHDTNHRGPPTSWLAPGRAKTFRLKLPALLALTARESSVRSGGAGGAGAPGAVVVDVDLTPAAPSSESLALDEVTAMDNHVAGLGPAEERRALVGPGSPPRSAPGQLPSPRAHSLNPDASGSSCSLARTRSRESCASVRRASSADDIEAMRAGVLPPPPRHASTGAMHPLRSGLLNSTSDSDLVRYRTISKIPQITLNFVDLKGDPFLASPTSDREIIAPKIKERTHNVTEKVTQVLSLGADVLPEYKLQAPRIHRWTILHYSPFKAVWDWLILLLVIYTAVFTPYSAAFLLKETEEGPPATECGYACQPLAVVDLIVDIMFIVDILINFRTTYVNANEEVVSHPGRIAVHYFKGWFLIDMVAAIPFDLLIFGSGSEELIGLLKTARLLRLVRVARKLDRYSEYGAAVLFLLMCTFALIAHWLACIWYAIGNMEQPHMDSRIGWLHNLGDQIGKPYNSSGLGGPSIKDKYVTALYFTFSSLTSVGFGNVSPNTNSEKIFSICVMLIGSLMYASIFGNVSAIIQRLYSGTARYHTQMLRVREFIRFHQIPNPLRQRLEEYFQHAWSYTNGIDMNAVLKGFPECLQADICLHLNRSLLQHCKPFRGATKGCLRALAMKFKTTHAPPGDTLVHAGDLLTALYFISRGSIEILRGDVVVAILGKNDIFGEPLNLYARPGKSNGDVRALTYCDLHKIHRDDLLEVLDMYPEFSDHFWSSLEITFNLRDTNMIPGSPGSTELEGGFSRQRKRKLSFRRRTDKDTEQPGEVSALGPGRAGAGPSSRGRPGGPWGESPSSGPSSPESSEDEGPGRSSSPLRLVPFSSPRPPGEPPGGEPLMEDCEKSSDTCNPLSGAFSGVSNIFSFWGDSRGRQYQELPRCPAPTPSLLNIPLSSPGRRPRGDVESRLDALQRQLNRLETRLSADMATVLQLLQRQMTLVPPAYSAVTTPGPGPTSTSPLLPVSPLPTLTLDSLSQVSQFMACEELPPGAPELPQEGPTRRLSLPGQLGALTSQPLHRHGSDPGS
protocol-notes: hERG cardiotoxicity assay (patch clamp, hERG stably expressed HEK 293 cell line)
experimental-setup: hERG current, HEK 293 cells, 5 doses
FYI, pIC50 means -log10 of a concentration in mol per litre.

| structure-string | numeric-result |
| --- | --- |
| CSc1cnc(CNC(=O)c2c(=O)c3ccc(N4CCCN(C)CC4)nc3n3c2sc2ccccc23)nc1 | 4.97 |

input: I would be grateful if you could share the reported pIC50 for Cc1cnc(CNC(=O)c2c(=O)c3ccc(N4CCCN(C)CC4)nc3n3c2sc2ccccc23)cn1 .
output: 5.29

###

System: DLD1 BRCA2^-/-
protocol-notes: Cell activity assay (CellTiterGlo), BRCA2 gene knockout DLD1 cancer cells
Type: cell-based
experimental-setup: Homo sapiens, DLD-1, 144 h, read-out: IC50(nM) DLD1 BRCA2^-/-
Listed here are compounds together with their documented IC50.
The response must be a number in nM with no trailing unit.

Sample answers from the record:
| structure-string | measurement-target | display-unit | IC50 |
| --- | --- | --- | --- |
| CN1CCCN(c2ccc3c(=O)c(C(=O)NCc4nccc(C#N)n4)c4sc5ccccc5n4c3n2)CC1 | DLD1 BRCA2^-/- | nM | 13.7 |
| [2H]C([2H])([2H])N1C([2H])([2H])C([2H])([2H])CN(c2ccc3c(=O)c(C(=O)NCc4ncc(F)cn4)c4sc5ccccc5n4c3n2)C([2H])([2H])C1([2H])[2H] | DLD1 BRCA2^-/- | nM | 15.9 |

input: Requested read-out IC50, target or system DLD1 BRCA2^-/-, entry CN1CCCN(c2ccc3c(=O)c(C(=O)NCc4ncc(C(F)(F)F)cn4)c4sc5ccccc5n4c3n2)CC1
output: 36

###

Test system: DLD1 BRCA2^-/-
protocol-notes: Cell activity assay (CellTiterGlo), BRCA2 gene knockout DLD1 cancer cells
Type: cell-based
experimental-setup: Homo sapiens, DLD-1, 144 h, read-out: IC50(nM) DLD1 BRCA2^-/-
Description: • (1) Compound Treatment • a) Preparation of Stock Solutions of Compounds Test compounds were dissolved in DMSO at a concentration of 10 mM or 5 mM, and Olaparib was dissolved in DMSO at a concentration of 10 mM. • b) Compound Storage All compounds dissolved in DMSO were stored in a desiccator at room temperature for short-term storage and transferred to a -20°C refrigerator for long-term storage. • c) Preparation of Working Concentrations of Compounds […]
Listed here are compounds together with their documented IC50.
The response must be a number in nM with no trailing unit.

Sample answers from the record:
| compound | quantity-measured | display-unit | numeric-result |
| --- | --- | --- | --- |
| CN1CCCN(c2ccc3c(=O)c(C(=O)NCc4ncc(C#N)cn4)c4sc5ccccc5n4c3n2)CC1 [Compound H-11] | IC50 | nM | 16.2 |
| Cc1cnc(CNC(=O)c2c(=O)c3ccc(N4CCCN(C)CC4)nc3n3c2sc2ccccc23)cn1 [CX-5461] | IC50 | nM | 43.9 |

input: I would be grateful if you could share the reported IC50 for CN1CCCN(c2ccc3c(=O)c(C(=O)NCc4ncc(F)cn4)c4sc5ccccc5n4c3n2)CC1 [Compound H-1] .
output: 37.7

input: I would be grateful if you could share the reported IC50 for O=C(c1cc(Cc2n[nH]c(=O)c3ccccc23)ccc1F)N1CCN(C(=O)C2CC2)CC1 [Olaparib, reference compound] .
output: 490

###

Test system: DLD1 BRCA2^-/-
protocol-notes: Cell activity assay (CellTiterGlo), BRCA2 gene knockout DLD1 cancer cells
Assay type: cell-based
experimental-setup: Homo sapiens, DLD-1, 144 h, read-out: IC50(nM) DLD1 BRCA2^-/-
quantity-measured: IC50 (nM)
The response must be a number in nM with no trailing unit.

Sample answers from the record:
| structure-string | IC50 / nM |
| --- | --- |
| [2H]C1([2H])CN(c2ccc3c(=O)c(C(=O)NCc4ncc(F)cn4)c4sc5ccccc5n4c3n2)C([2H])([2H])C([2H])([2H])N(C)C1([2H])[2H] | 23.8 |
| CCc1ccnc(CNC(=O)c2c(=O)c3ccc(N4CCCN(C)CC4)nc3n3c2sc2ccccc23)n1 | 36.7 |
| [2H]C([2H])([2H])N1C([2H])([2H])C([2H])([2H])CN(c2ccc3c(=O)c(C(=O)NCc4ncccn4)c4sc5ccccc5n4c3n2)C([2H])([2H])C1([2H])[2H] | 16.2 |

input: I would be grateful if you could share the reported IC50 for CNc1cnc(CNC(=O)c2c(=O)c3ccc(N4CCCN(C)CC4)nc3n3c2sc2ccccc23)nc1 .
output: 30.3

input: I would be grateful if you could share the reported IC50 for CN1CCCN(c2ccc3c(=O)c(C(=O)NCc4ncc(Cl)cn4)c4sc5ccccc5n4c3n2)CC1 .
output: 33.8

input: I would be grateful if you could share the reported IC50 for COc1cnc(CNC(=O)c2c(=O)c3ccc(N4CCCN(C)CC4)nc3n3c2sc2ccccc23)nc1 .
output: 27.5

input: I would be grateful if you could share the reported IC50 for [2H]C([2H])([2H])N1CCCN(c2ccc3c(=O)c(C(=O)NCc4ncccn4)c4sc5ccccc5n4c3n2)CC1 .
output: 12.8

###

protocol-notes: In-vivo pharmacokinetic study in mice (bioavailability testing)
experimental-setup: mouse, plasma; oral (PO) and intravenous (IV) routes, female Balb/c nude mice
quantity-measured: bioavailability (%)
The response must be a number in % with no trailing unit.

Sample answers from the record:
| compound | quantity-measured | numeric-result |
| --- | --- | --- |
| CN1CCCN(c2ccc3c(=O)c(C(=O)NCc4ncc(Cl)cn4)c4sc5ccccc5n4c3n2)CC1 [Compound H-2] | bioavailability | 47.2 |
| CN1CCCN(c2ccc3c(=O)c(C(=O)NCc4ncc(C5CC5)cn4)c4sc5ccccc5n4c3n2)CC1 [Compound H-27] | bioavailability | 59.2 |
| [2H]C([2H])([2H])N1CCCN(c2ccc3c(=O)c(C(=O)NCc4ncccn4)c4sc5ccccc5n4c3n2)CC1 [Compound H-31] | bioavailability | 43.1 |

input: I would be grateful if you could share the reported bioavailability for CN1CCCN(c2ccc3c(=O)c(C(=O)NCc4nccc(C5CC5)n4)c4sc5ccccc5n4c3n2)CC1 [Compound H-28] .
output: 41.6
